All figures here come from ChEMBL document CHEMBL1131156.

target.desc: L-selectin (Homo sapiens)
Sequence (P14151 whole entry): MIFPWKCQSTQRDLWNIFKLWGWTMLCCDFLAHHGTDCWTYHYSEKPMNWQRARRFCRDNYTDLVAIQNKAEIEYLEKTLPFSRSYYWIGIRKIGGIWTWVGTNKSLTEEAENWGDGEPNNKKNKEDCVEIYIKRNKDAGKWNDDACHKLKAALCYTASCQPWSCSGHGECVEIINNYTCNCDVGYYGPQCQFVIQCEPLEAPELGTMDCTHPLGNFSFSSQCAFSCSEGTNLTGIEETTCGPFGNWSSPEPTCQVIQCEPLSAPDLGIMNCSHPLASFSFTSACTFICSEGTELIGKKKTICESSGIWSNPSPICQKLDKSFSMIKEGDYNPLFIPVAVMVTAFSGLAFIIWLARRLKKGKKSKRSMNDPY
property: pIC50
Scale for pIC50: -log10 of concentration given in mol/L; no unit attached.

Examples with answers:
CCCCCCCCCCCC(CCCCCCCCCCC)C(=O)N[C@H](COC1OC(C)C(O)C(O)C1O)C(=O)NC(CCC(=O)O)C(=O)NC (some centres undefined): 4.92
CCCCCCCCCCCCCCC(CCCCCCCCCCCCCC)C(=O)N[C@H](CO[C@H]1O[C@@H](C)[C@@H](O)[C@H](O)[C@@H]1O)C(=O)N[C@@H](CCC(=O)O)C(=O)NC: 5.80

Noted for CCCCCCCCCCCCCCC(CCCCCCCCCCCCCC)C(=O)N[C@H](COC1OC(C)C(O)C(O)C1O)C(=O)NC(CCC(=O)O)C(=O)OC (some centres undefined) : its pIC50 reads 5.62

----------
target.desc: E-selectin (Homo sapiens, UniProt P16581)
Sequence (P16581 whole entry): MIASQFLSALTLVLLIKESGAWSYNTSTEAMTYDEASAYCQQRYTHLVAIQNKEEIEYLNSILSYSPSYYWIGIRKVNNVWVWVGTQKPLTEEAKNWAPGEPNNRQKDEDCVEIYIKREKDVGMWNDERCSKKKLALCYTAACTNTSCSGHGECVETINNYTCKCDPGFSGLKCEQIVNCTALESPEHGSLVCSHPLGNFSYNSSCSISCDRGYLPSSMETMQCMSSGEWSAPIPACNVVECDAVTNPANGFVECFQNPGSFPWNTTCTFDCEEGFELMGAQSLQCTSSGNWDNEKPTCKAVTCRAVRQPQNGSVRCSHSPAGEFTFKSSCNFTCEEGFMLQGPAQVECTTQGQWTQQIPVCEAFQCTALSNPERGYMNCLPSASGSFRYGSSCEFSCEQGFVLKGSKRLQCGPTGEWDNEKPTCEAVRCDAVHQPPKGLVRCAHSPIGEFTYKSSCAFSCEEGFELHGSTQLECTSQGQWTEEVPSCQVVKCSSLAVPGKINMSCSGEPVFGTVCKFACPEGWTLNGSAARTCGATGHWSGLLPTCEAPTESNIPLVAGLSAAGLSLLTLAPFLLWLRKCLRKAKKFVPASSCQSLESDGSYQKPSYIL
property: IC50

Consider the worked cases shown below.
CCCCCCCCCCCCCCC(CCCCCCCCCCCCCC)C(=O)N[C@H](COC1OC(C)C(O)C(O)C1O)C(=O)NC(CC(=O)O)C(=O)NC (stereo partly drawn): > 500 µM
CCCCCCCCCCCCCCC(CCCCCCCCCCCCCC)C(=O)N[C@@H](CO[C@H]1O[C@@H](C)[C@@H](O)[C@H](O)[C@@H]1O)C(=O)N[C@H](CCC(=O)O)C(=O)NC: > 100 µM

compound CCCCCCCCCCCCCCCC(=O)N[C@H](COC1OC(C)C(O)C(O)C1O)C(=O)NC(CCC(=O)O)C(=O)NC (stereo partly drawn) , IC50 observed: > 500 µM

According to the records, this compound CCCCCCCCCCCCCCC(CCCCCCCCCCCCCC)C(=O)N[C@@H](CO[C@H]1O[C@H](CO)[C@@H](O)[C@@H](O)[C@@H]1O)C(=O)N[C@H](CCC(=O)O)C(=O)NC (stereo in doubt; 5d) displays IC50 of > 1000 µM

Measured IC50, CCCCCCCCCCCC(CCCCCCCCCCC)C(=O)N[C@H](COC1OC(C)C(O)C(O)C1O)C(=O)NC(CCC(=O)O)C(=O)NC (stereo partly drawn) : 160 µM

Consider CCCCCCCCCCCCCCC(CCCCCCCCCCCCCC)C(=O)N[C@H](CO[C@H]1O[C@@H](C)[C@@H](O)[C@H](O)[C@@H]1O)C(=O)N[C@@H](CCC(=O)O)C(=O)NC . Its measured IC50 is > 100 µM

Record CCCCCCCCCCCCCCC(CCCCCCCCCCCCCC)C(=O)N[C@H](COC1OC(C)C(O)C(O)C1O)C(=O)NC(CCC(=O)O)C(=O)OC (stereo partly drawn) , field IC50: > 500 µM

Lab note: measured IC50 of CCCCCCCCCCCCCCC(CCCCCCCCCCCCCC)C(=O)N[C@H](CO[C@H]1O[C@@H](C)[C@@H](O)[C@H](O)[C@@H]1O)C(=O)N[C@H](CCC(=O)O)C(=O)NC was > 1000 µM

----------
target.desc: P-selectin (Homo sapiens, UniProt P16109)
Sequence (P16109 whole entry): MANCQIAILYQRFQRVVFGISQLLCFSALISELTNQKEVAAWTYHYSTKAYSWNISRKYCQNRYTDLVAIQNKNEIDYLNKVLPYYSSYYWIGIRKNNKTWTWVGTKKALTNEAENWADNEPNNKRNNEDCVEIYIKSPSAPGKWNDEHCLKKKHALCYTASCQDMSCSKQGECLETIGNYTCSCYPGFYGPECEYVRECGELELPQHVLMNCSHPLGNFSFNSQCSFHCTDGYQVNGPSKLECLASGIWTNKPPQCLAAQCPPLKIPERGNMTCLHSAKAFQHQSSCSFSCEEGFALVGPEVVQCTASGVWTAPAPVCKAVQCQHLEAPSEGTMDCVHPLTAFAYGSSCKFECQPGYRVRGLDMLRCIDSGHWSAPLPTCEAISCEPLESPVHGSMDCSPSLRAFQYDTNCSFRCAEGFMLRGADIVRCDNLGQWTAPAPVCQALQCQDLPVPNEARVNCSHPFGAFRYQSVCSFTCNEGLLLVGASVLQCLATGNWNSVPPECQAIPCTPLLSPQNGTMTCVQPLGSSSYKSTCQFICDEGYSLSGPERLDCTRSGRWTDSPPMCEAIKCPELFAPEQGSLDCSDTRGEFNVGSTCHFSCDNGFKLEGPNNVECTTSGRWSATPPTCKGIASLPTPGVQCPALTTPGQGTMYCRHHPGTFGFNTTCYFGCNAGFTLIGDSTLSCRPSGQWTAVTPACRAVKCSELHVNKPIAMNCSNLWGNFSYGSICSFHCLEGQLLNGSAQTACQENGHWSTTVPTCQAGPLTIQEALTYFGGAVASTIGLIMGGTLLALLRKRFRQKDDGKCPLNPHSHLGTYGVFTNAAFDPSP
assay.notes: Inhibition of Selectin P binding
# reported pIC50; entries follow
Keep in mind that pIC50 stands for -log10 of concentration in molar terms.

What the record says about CCCCCCCCCCCCCCC(CCCCCCCCCCCCCC)C(=O)N[C@@H](CO[C@H]1O[C@@H](C)[C@@H](O)[C@H](O)[C@@H]1O)C(=O)N[C@H](CCC(=O)O)C(=O)NC : pIC50 is 6.52

// pIC50 lookup, compound = CCCCCCCCCCCCCCC(CCCCCCCCCCCCCC)C(=O)N[C@H](COC1OC(C)C(O)C(O)C1O)C(=O)N[C@@H](CCC(=O)OC)C(=O)NC (stereo not given in full) , result: 4.43

The recorded pIC50 for entry CCCCCCCCCCCCCCC(CCCCCCCCCCCCCC)C(=O)N[C@H](CO[C@H]1O[C@@H](C)[C@@H](O)[C@H](O)[C@@H]1O)C(=O)N[C@@H](CCC(=O)O)C(=O)NC equals 6.52

For record CCCCCCCCCCCCCCC(CCCCCCCCCCCCCC)C(=O)N[C@@H](CO[C@H]1O[C@H](CO)[C@@H](O)[C@@H](O)[C@@H]1O)C(=O)N[C@H](CCC(=O)O)C(=O)NC (stereo in doubt; 5d) the listed pIC50 is 6.42

The compound CCCCCCCCCCCCCCC(CCCCCCCCCCCCCC)C(=O)N[C@H](CO[C@H]1O[C@H](CO)[C@@H](O)[C@@H](O)[C@@H]1O)C(=O)N[C@@H](CCC(=O)O)C(=O)NC showed pIC50 equal to 6.35

Short answer for CCCCCCCCCCCCCCC(CCCCCCCCCCCCCC)C(=O)N[C@H](COC1OC(C)C(O)C(O)C1O)C(=O)NC(CC(=O)O)C(=O)NC (stereo not given in full) : pIC50 was 5.44

Form field pIC50, entry CCCCCCCCCCCCCCC(CCCCCCCCCCCCCC)C(=O)N[C@H](COC1OC(C)C(O)C(O)C1O)C(=O)NC(CCC(=O)O)C(=O)OC (stereo not given in full) : 5.80

For reference, reported pIC50 for CCCCCCCCCCCCCCC(CCCCCCCCCCCCCC)C(=O)N[C@H](CO[C@H]1O[C@@H](C)[C@@H](O)[C@H](O)[C@@H]1O)C(=O)N[C@H](CCC(=O)O)C(=O)NC stands at 6.52

Kindly note the recorded pIC50 for CCCCCCCCCCCCCCC(CCCCCCCCCCCCCC)C(=O)N[C@@H](CO[C@H]1O[C@H](CO)[C@@H](O)[C@@H](O)[C@@H]1O)C(=O)N[C@H](CCC(=O)O)C(=O)NC (stereo in doubt; 5b) , which is 6.38

----------
IC50: recorded values
target.desc: P-selectin (Homo sapiens)
assay.notes: Inhibition of Selectin P binding
# value in nM; strip the unit string

Worked set:
CCCCCCCCCCCCCCC(CCCCCCCCCCCCCC)C(=O)N[C@@H](CO[C@H]1O[C@H](CO)[C@@H](O)[C@@H](O)[C@@H]1O)C(=O)N[C@H](CCC(=O)O)C(=O)NC (stereo in doubt; 5c): 680
CCCCCCCCCCCCCCC(CCCCCCCCCCCCCC)C(=O)N[C@@H](CO[C@H]1O[C@@H](C)[C@@H](O)[C@H](O)[C@@H]1O)C(=O)N[C@@H](CCC(=O)O)C(=O)NC: 600

Now consider the entry below.
Per the records, this molecule ( CCCCCCCCCCCC(CCCCCCCCCCC)C(=O)N[C@H](COC1OC(C)C(O)C(O)C1O)C(=O)NC(CCC(=O)O)C(=O)NC (stereo partly drawn) ) has IC50 equal to 15000
